- Test system: A. baumannii A489
- METHOD NOTES: MIC without and with sub-inhibitory polymyxin B (Example 4)
- Format: cell-based, Acinetobacter baumannii
- TEST CONTEXT: Acinetobacter baumannii, A489, A. baumannii A489; +[…] PB; 2nd experiment; read-out: MIC
ENDPOINT: MIC

MOL: Cc1c(-c2cc(Cl)c(N)c(Cl)c2)ccn2c(=O)c(C(=O)O)cc(C3CC3)c12
SUBJECT OF TEST: A. baumannii A489
TEST VALUE: ≤ 0.03 µg/mL
--
MOL: C[C@@H](O)[C@H]1C(=O)N2C(C(=O)O)=C(S[C@@H]3CN[C@H](C(=O)N(C)C)C3)[C@H](C)[C@H]12
SUBJECT OF TEST: A. baumannii A489
TEST VALUE: ≤ 0.125 µg/mL
--
MOL: COc1c(N2C[C@@H]3CCCN[C@@H]3C2)c(F)cc2c(=O)c(C(=O)O)cn(C3CC3)c12
SUBJECT OF TEST: A. baumannii A489
TEST VALUE: 4 µg/mL

###

MIC without PB/MIC + PB: recorded values
- System: A. baumannii A472
- METHOD NOTES: MIC without and with sub-inhibitory polymyxin B (Example 4)
- Assay type: cell-based, Acinetobacter baumannii
- TEST CONTEXT: A. baumannii A472; ratio, PB […]; 1st experiment
ENDPOINT: MIC without PB/MIC + PB

COMPOUND: Cc1c(-c2ccc(N)c(F)c2)ccn2c(=O)c(C(=O)O)cc(C3CC3)c12
SUBJECT OF TEST: A. baumannii A472
TEST VALUE: ≥256
//
COMPOUND: Cc1c(-c2cc(F)c(N)cc2F)ccn2c(=O)c(C(=O)O)cc(C3CC3)c12
SUBJECT OF TEST: A. baumannii A472
TEST VALUE: ≥128
//
COMPOUND: Cc1c(-c2ccc(N)cc2)c(F)cn2c(=O)c(C(=O)O)cc(C3CC3)c12
SUBJECT OF TEST: A. baumannii A472
TEST VALUE: ≥128
//
COMPOUND: NCC[C@H](O)C(=O)N[C@@H]1C[C@H](N)[C@@H](O[C@H]2O[C@H](CN)[C@@H](O)[C@H](O)[C@H]2O)[C@H](O)[C@H]1O[C@H]1O[C@H](CO)[C@@H](O)[C@H](N)[C@H]1O [Amikacin, reference compound]
SUBJECT OF TEST: A. baumannii A472
TEST VALUE: ≥8
//
COMPOUND: Cc1c(-c2ccc(N)cc2)ccn2c(=O)c(C(=O)O)cc(C3CC3)c12
SUBJECT OF TEST: A. baumannii A472
TEST VALUE: ≥128
//
COMPOUND: Cc1c(-c2ccc(N)c(F)c2)c(F)cn2c(=O)c(C(=O)O)cc(C3CC3)c12
SUBJECT OF TEST: A. baumannii A472
TEST VALUE: ≥128

###

MBC: recorded values
- Tested on: A. baumannii A472
- METHOD NOTES: Preliminary MBC without and with sub-inhibitory polymyxin B (Example 4)
- Assay type: cell-based, Acinetobacter baumannii
- TEST CONTEXT: Acinetobacter baumannii, A472, read-out: MBC +[…] PB, A. baumannii A472; +[…] polymyxin B; preliminary MBC; 1st experiment

MOL: C[C@@H](O)[C@H]1C(=O)N2C(C(=O)O)=C(S[C@@H]3CN[C@H](C(=O)N(C)C)C3)[C@H](C)[C@H]12
MBC: ≤ 0.125 µg/mL

MOL: Cc1c(-c2ccc(N)cc2)ccn2c(=O)c(C(=O)O)cc(C3CC3)c12
MBC: ≤ 0.03 µg/mL

MOL: Cc1c(-c2ccc(N)cc2)c(F)cn2c(=O)c(C(=O)O)cc(C3CC3)c12
MBC: ≤ 0.03 µg/mL

MOL: Cc1c(-c2ccc(N)c(F)c2)ccn2c(=O)c(C(=O)O)cc(C3CC3)c12
MBC: ≤ 0.03 µg/mL

The values you see were collected from patent US20190105367A1.
